# STUDY_SYSTEM: T1, hGITR.mFc (human)
# T1 construct: soluble dimeric construct with mouse Fc; also called dimeric human GITR
# T1 chain: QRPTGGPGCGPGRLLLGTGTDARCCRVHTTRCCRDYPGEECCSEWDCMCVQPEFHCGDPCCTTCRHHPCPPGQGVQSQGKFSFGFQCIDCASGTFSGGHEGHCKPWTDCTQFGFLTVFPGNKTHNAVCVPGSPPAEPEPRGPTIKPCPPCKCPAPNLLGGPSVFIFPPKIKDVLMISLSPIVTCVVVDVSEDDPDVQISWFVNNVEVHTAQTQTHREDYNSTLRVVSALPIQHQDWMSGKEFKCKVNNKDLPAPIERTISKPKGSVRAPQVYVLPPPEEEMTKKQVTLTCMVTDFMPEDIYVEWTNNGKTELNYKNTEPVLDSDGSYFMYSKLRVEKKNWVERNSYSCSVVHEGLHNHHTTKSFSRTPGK
# ASSAY_OVERVIEW: SPR 37C, mAb capture
t½ listing for selected binders.

Here are 2 binders together with their reported answers.
H1H14486P (antibody, human IgG1, V domains shown, human IgG1 (H1H)) VH: QVQLVESGGGVVQPGRSLRLSCAASGFTFSNYGMHWVRQAPGKGLEWVAVIWYPGSNKFYTDSVEGRFTISRDNSKNTVYLQMDSLRAEDTAVYYCARGGALGVDYYYGMDVWGQGTTVTVSS VL: AIQMTQSPSSLSASVGDRVTLTCRASQGIRNDLGWYQQKPGKAPNFLIYSASSLQSGVPSRFSGSGSGTDFTLTISSLQPEDFATYYCLQNYNYPWTFGQGTKVEIK = 75.5 min
H1H14523P (antibody, human IgG1, V domains shown, human IgG1 (H1H)) VH: QVQLVESGGGVVQPGRSLRLSCEASGFTFSSYGMHWVRQAPGKGLEWVAVIWYSESNKYYTDSMKGRLTISRDNSKNTLYLQMNSLRAEDTAVYYCARGGLLGKYYYYGMDVWGQGTTVTVSS VL: DIQMTQSPSSLSASVGDRVIITCRASQDIRNDLGWYQQKPGKAPKRLIYAASSLQSGVPSRFSGSGSGTEFTLTISSLQPEDFATFYCLQLNSYPYTFGQGTKLEIK = 96.3 min

Next:
INPUT: Need t½, item H1H14524P (antibody, human IgG1, V domains shown, human IgG1 (H1H)) VH: QVQLVESGGGVAQPGRSLSLSCAASGFTFSDYGMHWVRQAPGKGLEWVAVIWYAGSNKYYADSVKDRFTISRDNSKNTLYLQMRSLRVEDTAVYYCARGGELRLDYYSGLDVWGQGTTVTVSS VL: DIQMTQSPSSLSASVGDRVTVTCRASQGIRSDLGWYQQKPGKAPKRLIYAASSFQSGVPSRFSGSGSGTEFTLTISSLHPEDFATYYCLQSNNYPWTFGQGTKVEIK
OUTPUT: 85.6 min
